TEST DETAILS: chemical genetic growth profiling, strain panel (AID 1159580);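 note: tested at 20 µM; growth read once vehicle control cultures reached saturation at 30 °C; 1 = growth at the plate median or of vehicle wells; lower values mean less growth of the strain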
CONDITION: S. cerevisiae deletion strains, growth OD, locus YJL187C, strain SWE1 (second series), active compounds read low
The campaign covered roughly 5,500 compounds. About 2,000 (36%) were called active. Another 18% or so got no clear call; they are omitted. The list shows a part of the results.
EXPERIMENTAL READOUT: normalized growth
One number for each entry.

Your task in this section: give normalized growth for each listed record.
1. C=C1CCC2C(CC2(C)C)C(=O)CCC1O (stereo unspecified)
2. C=C1CCC2C(CC2(C)C)C(=C)CC/C1=N\O (stereo unspecified)
3. O=C(O)c1ccccc1-c1c2cc(Br)c(=O)cc-2oc2[c]([Hg])c(O)c(Br)cc12

Result:
1: 1.06; 2: 0.973; 3: 0.955
